Let's go through some IC50 measurements on 5-HT3 (Homo sapiens) together.
Sequence (P46098 24-478, species assumed): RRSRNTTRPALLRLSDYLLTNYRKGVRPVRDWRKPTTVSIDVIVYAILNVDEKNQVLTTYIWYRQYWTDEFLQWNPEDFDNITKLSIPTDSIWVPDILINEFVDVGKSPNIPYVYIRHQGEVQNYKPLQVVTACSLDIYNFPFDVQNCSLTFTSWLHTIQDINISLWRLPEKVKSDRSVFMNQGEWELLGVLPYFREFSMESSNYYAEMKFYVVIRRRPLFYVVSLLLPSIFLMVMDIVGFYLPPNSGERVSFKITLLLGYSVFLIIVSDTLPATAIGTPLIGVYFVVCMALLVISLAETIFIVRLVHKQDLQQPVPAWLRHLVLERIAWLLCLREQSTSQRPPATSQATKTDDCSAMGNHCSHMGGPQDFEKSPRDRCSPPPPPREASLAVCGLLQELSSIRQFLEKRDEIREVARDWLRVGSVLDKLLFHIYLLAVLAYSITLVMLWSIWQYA
Numeric only. Scale: nM

molecule: O=C(NC1CN2CCC1CC2)c1c[nH]c2ncccc12 (centres unmarked) [Compound B]
unitText: nM
IC50: 300

May I ask what IC50 has been recorded for CN1[C@@H]2CC[C@H]1C[C@@H](NC(=O)c1c[nH]c3ncccc13)C2 [Compound A] ?
3000

====

# Tested on: σ
# runDescription: Displacement of selective ligand from σ receptor (δ in text)
# Format: binding
# conditionDetails: 10^-5 M; 10 µM
The compounds listed here are annotated with their Dispacement percentage σ.
Give just the number in %; leave the unit off.

compound: Cc1nccn1CC1CCc2c(c3ccccc3n2C)C1=O (racemic) [Ondasetron, reference compound]
numericReadout: 45
//
compound: O=C(NC1CN2CCC1CC2)c1c[nH]c2ncccc12 (stereo not shown) [Compound B]
numericReadout: 26
//
compound: CN1[C@@H]2CC[C@H]1C[C@@H](NC(=O)c1c[nH]c3ncccc13)C2 [Compound A]
numericReadout: 70

Given the entry COc1cc(N)c(Cl)cc1C(=O)N[C@H]1C[C@H]2CC[C@@H](C1)N2C [BRL 24682, reference compound] , report its measured Dispacement percentage σ.
0
